FYI, the data here is from the supplement of paper PMC7366291.

Test system: Danio rerio Tg(wt1b:EGFP) embryo, pronephros
experiment.summary: glomerular separation, fold change vs DMSO control; higher = glomeruli further apart (abnormal)
stated.conditions: 25 µM; exposure: 24-48 hpf
Counter-ions that a name gives are not always drawn.
measured.attribute: glomerular separation
Answer as a number with no unit attached.

CC(N)C(O)c1ccccc1 (configuration not stated) [Phenylpropanolamine hydrochloride] ... 0.921
CC(=O)[C@H]1CC[C@H]2[C@@H]3CC[C@H]4C[C@H](O)CC[C@]4(C)[C@H]3C(=O)C[C@]12C ... 0.896
O=c1[nH]c2ccccc2n1CCCN1CCC(n2c(=O)[nH]c3cc(Cl)ccc32)CC1 ... 0.857
CC1OC(OC2/C=C/C=C/C=C/C=C/CC/C=C/C=C/[C@H](C)[C@@H](O)[C@@H](C)[C@H](C)OC(=O)CC(O)CC(O)CC(O)CCC(O)C(O)C[C@]3(O)CC(O)C(C(=O)O)C(C2)O3)C(O)C(N)C1O (some centres not stated) ... 0.778
COc1ccc(C(=O)N2CCCC2=O)cc1 ... 0.837
C[C@]12COC(=O)C[C@@H]1CC[C@@H]1[C@@H]2CC[C@@]2(C)[C@H]1CC[C@]2(C)O ... 0.832

Now take the following molecule into account.
Read off the recorded glomerular separation for CC(O)(CS(=O)(=O)c1ccc(F)cc1)C(=O)Nc1ccc(C#N)c(C(F)(F)F)c1 (configuration not stated) [Bicalutamide]
1.14

* * *

System: Danio rerio Tg(wt1b:EGFP) embryo, pronephros
experiment.summary: pronephric angle neck segment to proximal convoluted tubule (mean of left and right), fold change vs DMSO control; higher = larger pronephric angle
stated.conditions: 25 µM; exposure: 24-48 hpf
Structures can show the parent of a compound that is named as a salt.
measured.attribute: pronephric angle neck segment

A selection of reference data follows.
CN1C[C@H](C(=O)N[C@]2(C)O[C@@]3(O)[C@@H]4CCCN4C(=O)[C@H](Cc4ccccc4)N3C2=O)C[C@@H]2c3cccc4[nH]cc(c34)C[C@H]21 [Dihydroergotamine tartrate] ... 0.948
C[C@]12CCC(=O)C=C1CC[C@@H]1[C@@H]2C(=O)C[C@]2(C)C(=O)CC[C@@H]12 ... 0.958

Read off the recorded pronephric angle neck segment for NCC(O)c1ccc(O)cc1 (racemic) [(+,-)-Octopamine hydrochloride]
0.987

* * *

System: Danio rerio Tg(wt1b:EGFP) embryo, pronephros
experiment.summary: glomerular width (mean of left and right), fold change vs DMSO control; higher = wider glomerulus
stated.conditions: 25 µM; exposure: 24-48 hpf
Counter-ions that a name gives are not always drawn.
Below is a list of entries, each paired with its recorded glomerular width value.
Answer as a number with no unit attached.

Read off the recorded glomerular width for CC(C)CC(N(C)C)C1(c2ccc(Cl)cc2)CCC1 (stereo not drawn) [Sibutramine hydrochloride]
0.995

Read off the recorded glomerular width for C[C@]12CC[C@H](O)C[C@H]1CC[C@@H]1[C@@H]2C[C@@H](O)[C@]2(C)[C@@H](C3=CC(=O)OC3)CC[C@]12O
0.994

Read off the recorded glomerular width for CC[N+]1(C)CCCC(OC(=O)C(O)(c2ccccc2)c2ccccc2)C1 (stereo not drawn) [Pipenzolate bromide]
1.05

* * *

System: Danio rerio Tg(wt1b:EGFP) embryo, pronephros
experiment.summary: glomerular separation, fold change vs DMSO control; higher = glomeruli further apart (abnormal)
stated.conditions: 25 µM; exposure: 24-48 hpf
Structures can show the parent of a compound that is named as a salt.
measured.attribute: glomerular separation
Answer as a number with no unit attached.

A selection of reference data follows.
C#CCN(C)[C@H](C)Cc1ccccc1 [Selegiline hydrochloride] ... 0.996
CN1C[C@H](C(=O)N[C@]2(C)O[C@@]3(O)[C@@H]4CCCN4C(=O)[C@H](Cc4ccccc4)N3C2=O)C[C@@H]2c3cccc4[nH]cc(c34)C[C@H]21 [Dihydroergotamine tartrate] ... 1.15

Read off the recorded glomerular separation for O=P1(N(CCCl)CCCl)NCCCO1 (configuration not stated) [Cyclophosphamide]
0.894

Read off the recorded glomerular separation for CC(=O)O[C@H]1C[C@@H]2CC[C@@H]3[C@H](CC[C@@]4(C)[C@H]3C[C@H]([N+]3(C)CCCCC3)[C@@H]4OC(C)=O)[C@@]2(C)C[C@@H]1[N+]1(C)CCCCC1 [Pancuronium bromide]
1.23

Read off the recorded glomerular separation for CN(C)C(=O)Oc1cc(OC(=O)N(C)C)cc(C(O)CNC(C)(C)C)c1 (configuration not stated) [Bambuterol hydrochloride]
0.925

Read off the recorded glomerular separation for OC(c1ccccc1)(c1ccccc1)C1CCNCC1
0.869

Read off the recorded glomerular separation for CN[C@@H]1[C@@H](O)[C@@H](O[C@@H]2[C@@H](O)[C@H](O[C@H]3O[C@H](CN)CC[C@H]3N)[C@@H](N)C[C@H]2N)OC[C@]1(C)O.CN[C@@H]1[C@@H](O)[C@@H](O[C@@H]2[C@@H](O)[C@H](O[C@H]3O[C@H]([C@@H](C)N)CC[C@H]3N)[C@@H](N)C[C@H]2N)OC[C@]1(C)O.CN[C@@H]1[C@@H](O)[C@@H](O[C@@H]2[C@@H](O)[C@H](O[C@H]3O[C@H]([C@@H](C)NC)CC[C@H]3N)[C@@H](N)C[C@H]2N)OC[C@]1(C)O [Gentamicine sulfate]
0.941

* * *

Below is a list of entries, each paired with its recorded glomerular width value.
Tested on: Danio rerio Tg(wt1b:EGFP) embryo, pronephros
experiment.summary: glomerular width (mean of left and right), fold change vs DMSO control; higher = wider glomerulus
stated.conditions: 25 µM; exposure: 24-48 hpf
Answer as a number with no unit attached.

CCn1cc(C(=O)O)c(=O)c2cc3c(cc21)OCO3 ... 1.06
NCC1(CC(=O)O)CCCCC1 ... 0.976
O=C(CCCN1CCC2(CC1)C(=O)NCN2c1ccccc1)c1ccc(F)cc1 ... 0.978

Now take the following compound into account.
Read off the recorded glomerular width for CC(=O)O[C@H]1CC[C@@]2(C)C(=CC[C@@H]3[C@@H]2CC[C@]2(C)C(=O)CC[C@@H]32)C1 [Dehydroisoandosterone 3-acetate]
0.896

* * *

Tested on: Danio rerio Tg(wt1b:EGFP) embryo, pronephros
experiment.summary: fraction of imaged embryos annotated as normal kidney; higher = less nephrotoxic; extreme values may be limits of the assay
stated.conditions: 25 µM; exposure: 24-48 hpf
Structures can show the parent of a compound that is named as a salt.
Below is a list of entries, each paired with its recorded fraction of imaged embryos annotated as normal kidney value.

A selection of reference data follows.
CN1[C@@H]2CC[C@H]1C[C@@H](OC1c3ccccc3CCc3ccccc31)C2 [Deptropine citrate] ... 1
C[C@@H]1C[C@@H]([C@H](O)CC2CC(=O)NC(=O)C2)C(=O)[C@@H](C)C1 [Cycloheximide] ... 0.2
CC(C)c1cccc(C(C)C)c1O [Propofol] ... 0.75
CCCC(C)(COC(N)=O)COC(=O)NC(C)C (stereo not drawn) [Carisoprodol] ... 1
O=[N+]([O-])O[C@@H]1CO[C@H]2[C@@H]1OC[C@@H]2O [Isosorbide mononitrate] ... 0.833
O=P1(N(CCCl)CCCl)NCCCO1 (stereo not drawn) [Cyclophosphamide] ... 0.75

Read off the recorded fraction of imaged embryos annotated as normal kidney for COc1ccc(CCN2CCC(Nc3nc4ccccc4n3Cc3ccc(F)cc3)CC2)cc1 [Astemizole]
0.333

Read off the recorded fraction of imaged embryos annotated as normal kidney for CN1CCN(C(=O)OC2c3nccnc3C(=O)N2c2ccc(Cl)cn2)CC1 (stereo not drawn) [Zopiclone]
1

Read off the recorded fraction of imaged embryos annotated as normal kidney for CC(O)(CS(=O)(=O)c1ccc(F)cc1)C(=O)Nc1ccc(C#N)c(C(F)(F)F)c1 (stereo not drawn) [Bicalutamide]
0.75

* * *

System: Danio rerio Tg(wt1b:EGFP) embryo, pronephros
experiment.summary: pronephric angle neck segment to proximal convoluted tubule (mean of left and right), fold change vs DMSO control; higher = larger pronephric angle
stated.conditions: 25 µM; exposure: 24-48 hpf
Structures can show the parent of a compound that is named as a salt.
Below is a list of entries, each paired with its recorded pronephric angle neck segment value.
Answer as a number with no unit attached.

CCN(C)C(=O)Oc1cccc([C@H](C)N(C)C)c1 ... 0.991

Read off the recorded pronephric angle neck segment for CCC(=O)O[C@H]1CC[C@H]2[C@@H]3CCC4=CC(=O)CC[C@]4(C)[C@H]3CC[C@]12C [Testosterone propionate]
0.969

Read off the recorded pronephric angle neck segment for CN[C@@H]1[C@@H](O)[C@@H](O[C@@H]2[C@@H](O)[C@H](O[C@H]3O[C@H](CN)CC[C@H]3N)[C@@H](N)C[C@H]2N)OC[C@]1(C)O.CN[C@@H]1[C@@H](O)[C@@H](O[C@@H]2[C@@H](O)[C@H](O[C@H]3O[C@H]([C@@H](C)N)CC[C@H]3N)[C@@H](N)C[C@H]2N)OC[C@]1(C)O.CN[C@@H]1[C@@H](O)[C@@H](O[C@@H]2[C@@H](O)[C@H](O[C@H]3O[C@H]([C@@H](C)NC)CC[C@H]3N)[C@@H](N)C[C@H]2N)OC[C@]1(C)O [Gentamicine sulfate]
1.01

Read off the recorded pronephric angle neck segment for C=CCC1(CC(C)C)C(=O)NC(=O)NC1=O
1.01

Read off the recorded pronephric angle neck segment for N[C@@H]1C[C@H]1c1ccccc1 [Tranylcypromine hydrochloride]
1.01
